TEST SUMMARY: Glutathione peroxidase-like activity assessed as time to reach completion of the linear part at 20 uM in presence of cumene hydroperoxide by UV-VIS spectrophotometer analysis
Format: physicochemical
MEASURED QUANTITY: Time (s)

[[record]]
molecule = "COc1ccc(CC2NC(=[Se])NC2=O)cc1 (stereo not drawn)"
value_reported = 467

[[record]]
molecule = "O=C1NC(=[Se])NC1Cc1ccc(C(F)(F)F)cc1 (stereo not drawn)"
value_reported = 180

[[record]]
molecule = "NCC[Se][Se]CCN"
value_reported = 93


* * *

TEST SUMMARY: Glutathione peroxidase-like activity assessed as time to reach completion of the linear part at 20 uM in presence of H2O2 by UV-VIS spectrophotometer analysis
Type: physicochemical
List of Time values.
MEASURED QUANTITY: Time

[[record]]
molecule = "O=C1NC(=[Se])NC1Cc1ccccc1 (stereo not given)"
value_reported = "113 s"

[[record]]
molecule = "COc1ccc(CC2NC(=[Se])NC2=O)cc1 (stereo not given)"
value_reported = "140 s"

[[record]]
molecule = "O=C1NC(=[Se])NC1Cc1ccc(Cl)cc1 (stereo not given)"
value_reported = "113 s"

[[record]]
molecule = "O=C1NC(=[Se])NC1Cc1cccc2ccccc12 (stereo not given)"
value_reported = "187 s"

[[record]]
molecule = "Cc1ccc(CC2NC(=[Se])NC2=O)cc1 (stereo not given)"
value_reported = "107 s"

[[record]]
molecule = "O=C1NC(=[Se])NC1Cc1ccc(Br)cc1 (stereo not given)"
value_reported = "127 s"

[[record]]
molecule = "O=C1NC(=[Se])NC1Cc1ccc(F)cc1 (stereo not given)"
value_reported = "107 s"

[[record]]
molecule = "O=C1NC(=[Se])NC1Cc1ccc(C(F)(F)F)cc1 (stereo not given)"
value_reported = "100 s"

[[record]]
molecule = "O=c1c2ccccc2[se]n1-c1ccccc1 [EBSELEN]"
value_reported = "80 s"

[[record]]
molecule = "NCC[Se][Se]CCN"
value_reported = "153 s"

